Listed here are binders together with their documented EC50 hGIPR 0.5% hP (CreLuc).
Target: T1, GIP receptor (human (printed as hGIPR), UniProt P48546 22-466)
T1 sequence (looked up): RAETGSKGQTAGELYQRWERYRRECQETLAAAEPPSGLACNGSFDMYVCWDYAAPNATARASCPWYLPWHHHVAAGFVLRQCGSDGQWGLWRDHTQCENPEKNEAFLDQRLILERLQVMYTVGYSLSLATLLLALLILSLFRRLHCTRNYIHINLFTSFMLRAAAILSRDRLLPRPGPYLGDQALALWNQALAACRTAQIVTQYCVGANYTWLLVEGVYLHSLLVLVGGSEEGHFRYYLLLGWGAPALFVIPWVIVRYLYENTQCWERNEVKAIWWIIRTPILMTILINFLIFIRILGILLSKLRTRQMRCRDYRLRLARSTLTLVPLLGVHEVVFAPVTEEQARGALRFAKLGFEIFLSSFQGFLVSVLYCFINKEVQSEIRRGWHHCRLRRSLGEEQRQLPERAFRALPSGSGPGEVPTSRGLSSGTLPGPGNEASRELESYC
Assay: cell-based or functional assay
Starred links: 1 amine or outer side, 2 acyl side, 3 side chain; linkers in the order of their positions; H or OH if unused. Non-standard residues stand in square brackets, D forms with d. Groups on a side chain read outwards from the residue. No end group written: not given here. *: point of attachment. C20 diacid = O=C(O)CCCCCCCCCCCCCCCCCCC(=O)*; C18 diacid = O=C(O)CCCCCCCCCCCCCCCCC(=O)*; γGlu = O=C(O)[C@H](CCC(=O)[*:2])N[*:1]; εLys = N[C@@H](CCCCN[*:1])C(=O)[*:2]; AEEA = NCCOCCOCC(=O)O; Aib = CC(C)(N)C(=O)O

| binder | EC50 hGIPR 0.5% hP (CreLuc) |
| --- | --- |
| Y[Aib]EGTFTSDYSI[Aib]LEKQAQ[Aib]AFVEWLIK([εLys-γGlu-γGlu-γGlu-γGlu-γGlu-C20 diacid])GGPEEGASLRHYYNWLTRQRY-NH2 (also: TFA salt) [Compound 230] | 280 pM |
| YXEGTFTSDYSIXLEKQAQXAFVQWLIKGGPSEGASLRHYYNWLTRXRY (Aib at 2, 13, 20; bHGln (beta-homo-L-glutamine) at 47; K28 side chain carries C20DA-gGlu-gGlu-gGlu-gGlu-gGlu-gGlu-eLys; C-terminal amide) [Compound 186] | 110 pM |
| YXEGTFTSDYSIXLEKQAQXEFVEWLIKGGPSEGASLRHYYNWLTRQRY (Aib at 2, 13, 20; K28 side chain carries C18DA-gGlu-gGlu-gGlu-gGlu-gGlu-gGlu-eLys; C-terminal amide) [Compound 255] | 460 pM |
| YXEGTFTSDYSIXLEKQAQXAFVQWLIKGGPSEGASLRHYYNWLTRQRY (Aib at 2, 13, 20; K28 side chain carries C18DA-gGlu-gGlu-gGlu-gGlu-gGlu-OEG-OEG; C-terminal amide) [Compound 246] | 160 pM |
| Y[Aib]EGTFTSDYSI[Aib]LEKQAQ[Aib]AFVEWLIK([AEEA-AEEA-γGlu-γGlu-γGlu-γGlu-C18 diacid])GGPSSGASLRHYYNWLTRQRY-NH2 (also: TFA salt) [Compound 254] | 220 pM |
| Y[Aib]EGTFTSDYSI[Aib]LEKQAQ[Aib]AFVQWLIK([AEEA-AEEA-γGlu-γGlu-γGlu-γGlu-C18 diacid])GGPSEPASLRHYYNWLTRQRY-NH2 (also: TFA salt) [Compound 173] | 270 pM |
| Y[Aib]EGTFTSDYSI[Aib]LEKQAQ[Aib]AFIEWLIK([γGlu-γGlu-γGlu-γGlu-C18 diacid])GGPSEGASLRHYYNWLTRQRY-NH2 (also: TFA salt) [Compound 247] | 260 pM |
| Y[Aib]EGTFTSDYSI[Aib]LEKQAQ[Aib]AFVQWLIK([εLys-γGlu-γGlu-γGlu-γGlu-γGlu-C20 diacid])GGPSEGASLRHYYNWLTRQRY-NH2 (also: TFA salt) [Compound 242] | 320 pM |
| Y[Aib]EGTFTSDYSI[Aib]LEKQAQ[Aib]AFVEWLIKGGPSSGVSLRHYYNWLTRQRY-NH2 (not fully specified (residue 28); also: TFA salt) [Compound 212] | 240 pM |
| YXEGTFTSDYSIXLEKQAQXEFVQWLIKGGPSEGASLRHYYNWLTRQRY (Aib at 2, 13, 20; K28 side chain carries C18DA-E-E-E-E-E (SEQ ID NO: 636); C-terminal amide) [Compound 176] | 680 pM |
| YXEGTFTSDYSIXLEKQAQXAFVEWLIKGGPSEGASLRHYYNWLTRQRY (Aib at 2, 13, 20; NMeQ (N-methyl-L-glutamine) at 47; K28 side chain carries C20DA-gGlu-gGlu-gGlu-gGlu-gGlu-gGlu-eLys; C-terminal amide) [Compound 222] | 190 pM |
| YXEGTFTSDYSIXLEKQAQDAFVEWLIKGGPSSGASLRHYYNWLTRQRY (Aib at 2, 13; D-Asp at 20; K28 side chain carries C20DA-gGlu-gGlu-gGlu-gGlu-gGlu-gGlu-eLys; C-terminal amide) [Compound 211] | 850 pM |
| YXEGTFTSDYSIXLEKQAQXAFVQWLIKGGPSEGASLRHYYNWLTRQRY (Aib at 2, 13, 20; K28 side chain carries C18DA-E-E-E-E-E (SEQ ID NO: 636); C-terminal amide) [Compound 257] | 140 pM |
| Y[Aib]EGTFTSDYSI[Aib]LEKQAQ[Aib]AFVQWLIK([εLys-γGlu-γGlu-γGlu-γGlu-γGlu-γGlu-γGlu-C20 diacid])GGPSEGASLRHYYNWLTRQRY-NH2 (also: TFA salt) [Compound 224] | 430 pM |
| Y[Aib]EGTFTSDYSI[Aib]LEKQAQ[Aib]AFVEWLIK([εLys-γGlu-γGlu-γGlu-γGlu-γGlu-γGlu-γGlu-C20 diacid])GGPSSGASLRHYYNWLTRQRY-NH2 (also: TFA salt) [Compound 225] | 280 pM |
| Y[Aib]EGTFTSDYSI[Aib]LEKQAQ[Aib]AFIEWLIK([AEEA-AEEA-γGlu-γGlu-γGlu-γGlu-C20 diacid])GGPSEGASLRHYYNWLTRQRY-NH2 (also: TFA salt) [Compound 231] | 330 pM |
| Y[Aib]EGTFTSDYSI[Aib]LEKQAQ[Aib]AFVQWLIK([AEEA-AEEA-Glu-Glu-Glu-Glu-C20 diacid])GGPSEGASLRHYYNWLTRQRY-NH2 (also: TFA salt) [Compound 239] | 350 pM |
